Test system: ErbB2
Assay Protocol: Degradation of HSP90 client protein ErbB2 in SK-BR3, Western blotting
Format: cell-based
Experimental Context: Homo sapiens, SK-BR-3; SK-BR3, 18 hrs treatment, Western blotting; read-out: EC50, degradation of ErbB2
Metric: EC50 (µM)
Give the number; µM is assumed, so skip it.

Give EC50 (ErbB2) of the following compound: "O=C1OCC/C=C/CC/C=C/C(=N/OCC(=O)N2CCCCC2)Cc2c(Cl)c(O)cc(O)c21"
0.026

---

Recorded IC50 by entry
Target System: VEGF-R3 (Homo sapiens, UniProt P35916)
Construct: host or cells: Sf9 insect cells (baculovirus)
Sequence (P35916 25-1363): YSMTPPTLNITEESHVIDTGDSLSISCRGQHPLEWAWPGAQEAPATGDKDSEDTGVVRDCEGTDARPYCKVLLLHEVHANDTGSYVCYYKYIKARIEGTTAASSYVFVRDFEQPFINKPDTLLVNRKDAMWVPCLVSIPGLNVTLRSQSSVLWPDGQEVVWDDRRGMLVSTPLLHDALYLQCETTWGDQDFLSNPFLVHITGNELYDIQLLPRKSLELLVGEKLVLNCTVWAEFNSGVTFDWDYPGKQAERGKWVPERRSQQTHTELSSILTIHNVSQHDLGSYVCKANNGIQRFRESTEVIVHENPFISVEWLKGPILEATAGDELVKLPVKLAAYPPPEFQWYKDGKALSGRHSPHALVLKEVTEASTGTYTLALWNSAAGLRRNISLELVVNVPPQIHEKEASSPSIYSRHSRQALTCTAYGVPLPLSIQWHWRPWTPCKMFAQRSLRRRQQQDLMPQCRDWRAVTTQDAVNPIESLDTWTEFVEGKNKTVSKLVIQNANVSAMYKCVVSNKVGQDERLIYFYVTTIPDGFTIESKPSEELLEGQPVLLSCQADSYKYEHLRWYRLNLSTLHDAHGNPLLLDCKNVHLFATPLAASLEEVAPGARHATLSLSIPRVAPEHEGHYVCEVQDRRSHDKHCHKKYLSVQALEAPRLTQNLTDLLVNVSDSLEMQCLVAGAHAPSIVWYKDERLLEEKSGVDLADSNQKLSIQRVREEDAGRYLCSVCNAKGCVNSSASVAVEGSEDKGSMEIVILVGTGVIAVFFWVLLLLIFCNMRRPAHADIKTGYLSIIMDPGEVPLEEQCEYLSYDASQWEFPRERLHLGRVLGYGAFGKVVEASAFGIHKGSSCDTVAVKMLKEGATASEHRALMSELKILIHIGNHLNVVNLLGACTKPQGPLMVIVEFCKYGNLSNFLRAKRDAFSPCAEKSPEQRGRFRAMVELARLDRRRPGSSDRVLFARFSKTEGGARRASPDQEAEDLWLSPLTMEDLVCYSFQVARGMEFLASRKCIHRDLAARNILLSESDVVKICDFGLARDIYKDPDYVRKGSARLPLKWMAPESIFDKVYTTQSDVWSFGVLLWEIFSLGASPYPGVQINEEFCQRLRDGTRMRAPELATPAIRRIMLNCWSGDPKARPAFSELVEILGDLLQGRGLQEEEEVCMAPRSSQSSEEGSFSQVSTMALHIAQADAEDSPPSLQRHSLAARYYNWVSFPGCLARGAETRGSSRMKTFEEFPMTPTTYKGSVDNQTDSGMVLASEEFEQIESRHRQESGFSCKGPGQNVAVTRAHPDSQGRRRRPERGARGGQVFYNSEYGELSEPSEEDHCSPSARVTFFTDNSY
Assay Protocol: Radiometric protein kinase assay, VEGF-R3
Type: biochemical
Experimental Context: 1 μM ATP; read-out: Inhibitory activity (IC50:μM) VEGF-R3
Description: All protein kinases were expressed in Sf9 insect cells as human recombinant GST-fusion proteins or His-tagged proteins by means of the baculovirus expression system. Kinases were purified by affinity chromatography using either GSH-agarose (Sigma) or Ni-NTH-agarose (Qiagen). […] The reaction cocktails were incubated at 30° C. for 80 minutes. […] Incorporation of ^33Pi was determined with a microplate scintillation counter (Microbeta Trilux, Wallac). […]
# do not omit the unit; it follows the number

Answered cases to consult:
{"Molecule": "CC(C)[C@@H]1CC2OC2CC/C=C/C(=O)Cc2c(Cl)c(O)cc(O)c2C(=O)O1 (some centres unmarked)", "Measured": "31 µM"}
{"Molecule": "O=C1/C=C/CCC2OC2C[C@@H](Cc2ccccc2)OC(=O)c2c(O)cc(O)cc2C1 (some centres unmarked)", "Measured": "34 µM"}
{"Molecule": "O=C1Cc2c(Cl)c(O)cc(O)c2C(=O)O[C@H](c2ccccc2)C/C=C/CCC(Cl)C1 (some centres unmarked)", "Measured": "19 µM"}

IC50 lookup needed for COC1CC/C=C/C[C@H](c2ccccc2)OC(=O)c2c(O)cc(O)c(Cl)c2CC(=O)C1 (some centres unmarked) , thanks.
40 µM

Can you check O=C1/C=C/CCC2OC2C[C@H](c2ccccc2)OC(=O)c2c(O)cc(O)c(Cl)c2C1 (some centres unmarked) next?
31 µM
